The reported numbers originate from ChEMBL document CHEMBL6153096.

- Target Entity: Cereblon/Casein kinase I alpha (Homo sapiens, UniProt P48729+Q96SW2)
- Test Summary: Molecular glue activity at CRBN/HiBiT-tagged CK1-alpha in human Jurkat cells assessed as induction of CK1-alpha degradation incubated for 5 hrs by Nano-Glo HiBiT assay
- Format: cell-based
Record form. Attribute: EC90. Fill in for each entry.
Answers are plain numbers, in nM.

Here's what some known entries look like.
INSERT INTO measurements (compound, attribute_measured, reported) VALUES
  ('O=C1CCC(N2Cc3cc(NC(=O)c4cn5cc(Cl)ccc5n4)ccc3C2=O)C(=O)N1 (stereo not drawn)', 'EC90', 14.9),
  ('Cc1cccc2nc(C(=O)Nc3ccc4c(c3)CN(C3CCC(=O)NC3=O)C4=O)cn12 (stereo not drawn)', 'EC90', 35.3),
  ('O=C1CCC(N2Cc3cc(NC(=O)c4cn5cccc(C(F)(F)F)c5n4)ccc3C2=O)C(=O)N1 (stereo not drawn)', 'EC90', 25),
  ('COc1ccc2nc(C(=O)Nc3ccc4c(c3)CN(C3CCC(=O)NC3=O)C4=O)cn2c1 (stereo not drawn)', 'EC90', 16.2),
  ('O=C1CCC(N2Cc3cc(NC(=O)c4cn5ccc(F)cc5n4)ccc3C2=O)C(=O)N1 (stereo not drawn)', 'EC90', 135),
  ('O=C1CCC(N2Cc3cc(NC(=O)c4cn5cc(F)ccc5n4)ccc3C2=O)C(=O)N1 (stereo not drawn)', 'EC90', 45.5),
  ('COc1ccn2cc(C(=O)Nc3ccc4c(c3)CN(C3CCC(=O)NC3=O)C4=O)nc2c1 (stereo not drawn)', 'EC90', 53);

Please look at the following compound next.
Noted for COc1cccn2cc(C(=O)Nc3ccc4c(c3)CN(C3CCC(=O)NC3=O)C4=O)nc12 (stereo not drawn) : its EC90 reads 73.1

----------
- Target Entity: Cereblon/Casein kinase I alpha (Homo sapiens, UniProt P48729+Q96SW2)
- Test Summary: Molecular glue activity at CRBN/HiBiT-tagged CK1-alpha in human Jurkat cells assessed as induction of CK1-alpha degradation incubated for 5 hrs by Nano-Glo HiBiT assay
- Format: cell-based
Use DC50 to assign classes; range list: low bracket: < 6 nM; middle bracket: ≥ 6 nM and < 60 nM; high bracket: ≥ 60 nM

Example entries and their recorded answers appear below.
INSERT INTO assay_data (molecule, target_entity, class_name) VALUES
  ('O=C1CCC(N2Cc3cc(NC(=O)c4cnc5ccccc5c4)ccc3C2=O)C(=O)N1 (centres undefined)', 'Cereblon/Casein kinase I alpha (Homo sapiens, UniProt P48729+Q96SW2)', 'high bracket'),
  ('O=C1CCC(N2Cc3cc(-c4cc5ccccc5cn4)ccc3C2=O)C(=O)N1 (centres undefined)', 'Cereblon/Casein kinase I alpha (Homo sapiens, UniProt P48729+Q96SW2)', 'middle bracket'),
  ('CN1C(=O)CCC(N2Cc3cc(NC(=O)c4cn5ccccc5n4)ccc3C2=O)C1=O (centres undefined)', 'Cereblon/Casein kinase I alpha (Homo sapiens, UniProt P48729+Q96SW2)', 'high bracket'),
  ('O=C1CCC(N2Cc3cc(NC(=O)c4nc5ccccc5[nH]4)ccc3C2=O)C(=O)N1 (centres undefined)', 'Cereblon/Casein kinase I alpha (Homo sapiens, UniProt P48729+Q96SW2)', 'middle bracket'),
  ('O=C1CCC(N2C(=O)c3ccc(NC(=O)c4cn5ccccc5n4)cc3C2=O)C(=O)N1 (centres undefined)', 'Cereblon/Casein kinase I alpha (Homo sapiens, UniProt P48729+Q96SW2)', 'high bracket'),
  ('O=C1CCC(N2Cc3cc(CNC(=O)c4cnc5ccccc5c4)ccc3C2=O)C(=O)N1 (centres undefined)', 'Cereblon/Casein kinase I alpha (Homo sapiens, UniProt P48729+Q96SW2)', 'high bracket'),
  ('O=C1CCC(N2Cc3c(NC(=O)c4cnc5ccccc5c4)cccc3C2=O)C(=O)N1 (centres undefined)', 'Cereblon/Casein kinase I alpha (Homo sapiens, UniProt P48729+Q96SW2)', 'high bracket'),
  ('O=C1CCC(N2Cc3cc(NC(=O)c4cn5ccc(F)cc5n4)ccc3C2=O)C(=O)N1 (centres undefined)', 'Cereblon/Casein kinase I alpha (Homo sapiens, UniProt P48729+Q96SW2)', 'middle bracket');

Enquiry: Quick check: band for O=C1CCC(N2Cc3cc(NC(=O)c4cn5cc(Cl)ccc5n4)ccc3C2=O)C(=O)N1 (centres undefined)
Return: low bracket

Enquiry: Quick check: band for Cc1cccc2nc(C(=O)Nc3ccc4c(c3)CN(C3CCC(=O)NC3=O)C4=O)cn12 (centres undefined)
Return: low bracket

Enquiry: Quick check: band for O=C1CCC(N2Cc3cc(NC(=O)c4cc5ccccc5cn4)ccc3C2=O)C(=O)N1 (centres undefined)
Return: middle bracket

Enquiry: Quick check: band for O=C1CCC(N2Cc3cc(NC(=O)c4cnc5ccccn45)ccc3C2=O)C(=O)N1 (centres undefined)
Return: high bracket

Enquiry: Quick check: band for O=C1CCC(N2Cc3cc(NC(=O)c4cc5ccccn5c4)ccc3C2=O)C(=O)N1 (centres undefined)
Return: high bracket

Enquiry: Quick check: band for COc1ccc2nc(C(=O)Nc3ccc4c(c3)CN(C3CCC(=O)NC3=O)C4=O)cn2c1 (centres undefined)
Return: low bracket

Enquiry: Quick check: band for O=C1CCC(N2Cc3cc(NC(=O)c4cc5ccccn5n4)ccc3C2=O)C(=O)N1 (centres undefined)
Return: low bracket

----------
Record form. Attribute: CLH. Fill in for each entry.
- Test Summary: Metabolic stability in mouse liver microsomes assessed as intrinsic clearance
- Assay type: ADME, Microsome
Answers are plain numbers, in µL/min/mg.

# batch: return CLH for each of the 3 molecules below
1. O=C1CCC(N2Cc3cc(NC(=O)c4cn5ccccc5n4)ccc3C2=O)C(=O)N1 (stereo unspecified)
2. O=C1CCC(N2Cc3cc(NC(=O)c4cc5ccccn5n4)ccc3C2=O)C(=O)N1 (stereo unspecified)
3. CCN(CC)CCNC(=O)c1c(C)[nH]c(/C=C2\C(=O)Nc3ccc(F)cc32)c1C [SUNITINIB]

Return:
9
111
33

Noted for O=C1CCC(N2Cc3cc(-c4cnc5ccccc5c4)ccc3C2=O)C(=O)N1 (stereo unspecified) : its CLH reads 11

----------
- Test Summary: Metabolic stability in human liver microsomes assessed as half life
- Type: ADME, Microsome
Record form. Attribute: t1/2. Fill in for each entry.
One number for each entry, in min.

Here's what some known entries look like.
INSERT INTO assay_data (compound, attribute_measured, reported) VALUES
  ('CCN(CC)CCNC(=O)c1c(C)[nH]c(/C=C2\C(=O)Nc3ccc(F)cc32)c1C', 't1/2', 39.4),
  ('COc1ccc2nc(C(=O)Nc3ccc4c(c3)CN(C3CCC(=O)NC3=O)C4=O)cn2c1 (stereo unspecified)', 't1/2', 33.2),
  ('O=C1CCC(N2Cc3cc(NC(=O)c4cnc5ccccc5c4)ccc3C2=O)C(=O)N1 (stereo unspecified)', 't1/2', 23.4);

Please look at the following compound next.
Noted for O=C1CCC(N2Cc3cc(NC(=O)c4cc5ccccn5n4)ccc3C2=O)C(=O)N1 (stereo unspecified) : its t1/2 reads 65.4

----------
- Test Summary: Metabolic stability in mouse liver microsomes assessed as half life
- Type: ADME, Microsome
- Condition Label: liver microsomes
Attribute Measured: half-life (min)
One number for each entry, in min.

Noted for CCN(CC)CCNC(=O)c1c(C)[nH]c(/C=C2\C(=O)Nc3ccc(F)cc32)c1C : its half-life reads 20.9

----------
- Test Summary: Metabolic stability in human liver microsomes assessed as intrinsic clearance
- Type: ADME, Microsome
Attribute Measured: CLH (µL/min/mg)
Numbers only, in µL/min/mg.

# batch: return CLH for each of the 3 compounds below
1. O=C1CCC(N2Cc3cc(NC(=O)c4cnc5ccccc5c4)ccc3C2=O)C(=O)N1 (stereo unspecified)
2. CCN(CC)CCNC(=O)c1c(C)[nH]c(/C=C2\C(=O)Nc3ccc(F)cc32)c1C
3. COc1ccc2nc(C(=O)Nc3ccc4c(c3)CN(C3CCC(=O)NC3=O)C4=O)cn2c1 (stereo unspecified)

Return:
30
18
21

Noted for O=C1CCC(N2Cc3cc(NC(=O)c4cc5ccccn5n4)ccc3C2=O)C(=O)N1 (stereo unspecified) : its CLH reads 11

----------
- Target Entity: Cereblon/Casein kinase I alpha (Homo sapiens, UniProt P48729+Q96SW2)
- Test Summary: Molecular glue activity at CRBN/CK1-alpha in human MOLM-13 cells assessed as induction of CK1-alpha degradation at 1 uM incubated for 5 hrs by Western blot analysis
- Assay type: cell-based
- Sequence (P48729 2-337 limits assumed): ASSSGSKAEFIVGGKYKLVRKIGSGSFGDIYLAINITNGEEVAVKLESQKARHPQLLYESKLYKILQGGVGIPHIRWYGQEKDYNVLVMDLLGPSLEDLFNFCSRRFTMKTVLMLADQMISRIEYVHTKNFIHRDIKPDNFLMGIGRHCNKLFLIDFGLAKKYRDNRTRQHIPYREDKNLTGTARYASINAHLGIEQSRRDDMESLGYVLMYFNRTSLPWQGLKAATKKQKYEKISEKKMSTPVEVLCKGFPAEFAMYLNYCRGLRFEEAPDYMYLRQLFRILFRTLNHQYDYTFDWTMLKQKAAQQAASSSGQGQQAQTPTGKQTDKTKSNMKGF
- Sequence (Q96SW2 whole entry partner): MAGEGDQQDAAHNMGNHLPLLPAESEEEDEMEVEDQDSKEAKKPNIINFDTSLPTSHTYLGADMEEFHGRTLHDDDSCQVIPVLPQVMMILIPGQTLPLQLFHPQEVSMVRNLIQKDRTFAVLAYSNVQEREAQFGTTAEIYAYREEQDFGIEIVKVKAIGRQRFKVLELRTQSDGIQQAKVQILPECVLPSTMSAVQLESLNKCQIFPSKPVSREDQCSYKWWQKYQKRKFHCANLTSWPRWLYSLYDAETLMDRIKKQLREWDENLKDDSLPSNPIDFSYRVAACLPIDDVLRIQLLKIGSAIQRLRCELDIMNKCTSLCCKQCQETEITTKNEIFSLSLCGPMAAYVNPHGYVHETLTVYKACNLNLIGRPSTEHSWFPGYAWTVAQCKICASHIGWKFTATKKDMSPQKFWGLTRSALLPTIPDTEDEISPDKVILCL
Activity calls are given as the source filed them. The rule behind the calls is not given here.
Attribute Measured: Activity

INSERT INTO assay_data (compound, target_entity, attribute_measured, reported) VALUES
  ('COc1ccc2nc(C(=O)Nc3ccc4c(c3)CN(C3CCC(=O)NC3=O)C4=O)cn2c1 (stereo unspecified)', 'Cereblon/Casein kinase I alpha (Homo sapiens, UniProt P48729+Q96SW2)', 'Activity', 'Active'),
  ('O=C1CCC(N2Cc3cc(NC(=O)c4cn5cccc(C(F)(F)F)c5n4)ccc3C2=O)C(=O)N1 (stereo unspecified)', 'Cereblon/Casein kinase I alpha (Homo sapiens, UniProt P48729+Q96SW2)', 'Activity', 'Active'),
  ('O=C1CCC(N2Cc3cc(-c4cnc5ccccc5c4)ccc3C2=O)C(=O)N1 (stereo unspecified)', 'Cereblon/Casein kinase I alpha (Homo sapiens, UniProt P48729+Q96SW2)', 'Activity', 'Active'),
  ('O=C1CCC(N2Cc3cc(NC(=O)c4cc5ccccn5n4)ccc3C2=O)C(=O)N1 (stereo unspecified)', 'Cereblon/Casein kinase I alpha (Homo sapiens, UniProt P48729+Q96SW2)', 'Activity', 'Active'),
  ('O=C1CCC(N2Cc3cc(NC(=O)c4cn5ccccc5n4)ccc3C2=O)C(=O)N1 (stereo unspecified)', 'Cereblon/Casein kinase I alpha (Homo sapiens, UniProt P48729+Q96SW2)', 'Activity', 'Active');

Measured on Cereblon/Casein kinase I alpha (Homo sapiens, UniProt P48729+Q96SW2), CN1C(=O)CCC(N2Cc3cc(NC(=O)c4cn5ccccc5n4)ccc3C2=O)C1=O (stereo unspecified) has a documented Activity of Active
